assay: self-splicing fitness, log relative to wild type (ln ratio); higher = more splicing; Tetrahymena group I intron in knt gene, E. coli kanamycin selection, DiMSum; sequences stand for … in CUCUCU…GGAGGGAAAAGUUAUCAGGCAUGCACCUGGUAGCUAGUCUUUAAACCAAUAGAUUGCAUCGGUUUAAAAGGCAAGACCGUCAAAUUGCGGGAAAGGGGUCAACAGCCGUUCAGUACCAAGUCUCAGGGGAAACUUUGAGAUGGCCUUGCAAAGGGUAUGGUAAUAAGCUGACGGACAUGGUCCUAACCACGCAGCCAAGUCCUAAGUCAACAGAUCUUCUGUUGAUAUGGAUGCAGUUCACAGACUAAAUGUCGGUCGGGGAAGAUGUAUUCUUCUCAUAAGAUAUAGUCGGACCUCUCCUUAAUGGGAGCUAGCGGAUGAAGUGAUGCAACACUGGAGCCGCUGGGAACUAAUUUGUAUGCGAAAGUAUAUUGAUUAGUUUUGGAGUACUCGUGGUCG; details: 37 °C;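 also: selection with 25 µg/mL kanamycin versus none on LB agar overnight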

>  <SEQUENCE ENTRY>
UCAUAGCAAUAUUACGACCU

>  <self-splicing fitness (ln)>
-0.81

$$$$
>  <SEQUENCE ENTRY>
CCUUAGCAAUAUUACGAGCG

>  <self-splicing fitness (ln)>
-0.792

$$$$
>  <SEQUENCE ENTRY>
GAGGAGCAAUAUUACGACUU

>  <self-splicing fitness (ln)>
-1.97

$$$$
